Cited source for all entries: ChEMBL document CHEMBL3351634

Molecular target: UniProt Q16790
Test: Inhibition of human recombinant carbonic anhydrase 9 preincubated for 15 mins by stopped-flow CO2 hydrase assay
pKi: −log10 of the molar value.
Measured Parameter: pKi

> print(dat)
                                  smiles.str  numeric.value
 1  N#Cc1c(-c2ccc(Br)cc2)cn(-c2ccc(S(N)(=O)=O)cc2)c1NS(=O)(=O)c1ccccc1           6.07
 2  Cc1nc(S)c2c(-c3ccc(Br)cc3)cn(-c3ccc(S(N)(=O)=O)cc3)c2n1           8.27
 3  CC(=O)CC(=O)Nc1c(C#N)c(-c2ccc(Br)cc2)cn1-c1ccc(S(N)(=O)=O)cc1           8.26
 4  C/C(S)=N/c1c(C#N)c(-c2ccc(Br)cc2)cn1-c1ccc(S(N)(=O)=O)cc1           8.22
 5  Nc1nc(=O)[nH]c2c1c(-c1ccc(Br)cc1)cn2-c1ccc(S(N)(=O)=O)cc1           7.61
 6  N#Cc1c(-c2ccc(Br)cc2)cn(-c2ccc(S(N)(=O)=O)cc2)c1NC(=S)Nc1ccc(S(N)(=O)=O)cc1           7.29
 7  Nc1nc(=S)[nH]c2c1c(-c1ccc(Br)cc1)cn2-c1ccc(S(N)(=O)=O)cc1           7.37
 8  NS(=O)(=O)c1ccc(-n2cc(-c3ccc(Br)cc3)c3c(=S)[nH]c(=S)[nH]c32)cc1           8.15
 9  NS(=O)(=O)c1ccc(-n2cc(-c3ccc(Br)cc3)c3c(=O)n(C(=O)c4ccccc4)c(-c4ccccc4)nc32)cc1           8.19
10  N#Cc1c(-c2ccc(Br)cc2)cn(-c2ccc(S(N)(=O)=O)cc2)c1NC(=S)Nc1ccccc1           7.20
11  N#Cc1c(-c2ccc(Br)cc2)cn(-c2ccc(S(N)(=O)=O)cc2)c1NC(=S)Nc1ccc(I)cc1           6.34
12  N#Cc1c(-c2ccc(Br)cc2)cn(-c2ccc(S(N)(=O)=O)cc2)c1NC(=S)Nc1ccc(Cl)cc1           7.04
13  NS(=O)(=O)c1ccc(-n2cc(-c3ccc(Br)cc3)c3c(=O)n(C(=O)c4ccc(Cl)cc4)c(-c4ccc(Cl)cc4)nc32)cc1           6.31
14  N#Cc1c(-c2ccc(Br)cc2)cn(-c2ccc(S(N)(=O)=O)cc2)c1NC(=S)Nc1ccc([N+](=O)[O-])cc1           7.06
15  Cc1ccc(S(=O)(=O)Nc2c(C#N)c(-c3ccc(Br)cc3)cn2-c2ccc(S(N)(=O)=O)cc2)cc1           6.77

----------
Target: Carbonic anhydrase 2 (Homo sapiens)
Assay: Inhibition of human recombinant carbonic anhydrase 2 preincubated for 15 mins by stopped-flow CO2 hydrase assay
Measured Parameter: Ki

> print(dat)
                                 smiles.str  measured.parameter   result
1  NS(=O)(=O)c1ccc(-n2cc(-c3ccc(Br)cc3)c3c(=O)n(C(=O)c4ccc(Cl)cc4)c(-c4ccc(Cl)cc4)nc32)cc1                  Ki  > 10 µM

----------
Molecular target: Carbonic anhydrase 1 (Homo sapiens, UniProt P00915)
Sequence (P00915 whole entry): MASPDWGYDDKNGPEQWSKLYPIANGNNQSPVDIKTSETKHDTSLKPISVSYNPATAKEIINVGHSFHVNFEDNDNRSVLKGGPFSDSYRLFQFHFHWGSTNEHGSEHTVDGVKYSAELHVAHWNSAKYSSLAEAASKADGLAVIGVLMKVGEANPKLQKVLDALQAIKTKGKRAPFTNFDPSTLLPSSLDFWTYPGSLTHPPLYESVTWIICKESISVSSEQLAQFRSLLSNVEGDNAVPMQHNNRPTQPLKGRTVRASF
Assay: Inhibition of human recombinant carbonic anhydrase 1 preincubated for 15 mins by stopped-flow CO2 hydrase assay
Measured Parameter: Ki

> print(dat)
                                 smiles.str   result
1  NS(=O)(=O)c1ccc(-n2cc(-c3ccc(Br)cc3)c3c(=O)n(C(=O)c4ccccc4)c(-c4ccccc4)nc32)cc1  > 10 µM
2  NS(=O)(=O)c1ccc(-n2cc(-c3ccc(Br)cc3)c3c(=O)n(C(=O)c4ccc(Cl)cc4)c(-c4ccc(Cl)cc4)nc32)cc1  > 10 µM
